tested on: cells (EV68 assay); assay: Cell toxicity (CC50) in EV68 assay
Measured CC50 of individual entries
Don't forget the unit after the number, please.

>>> result("COc1ccc(-c2sc(NC(C)(C)c3ccccn3)nc2C)cc1S(=O)(=O)Nc1c(C)cccc1F")
"38 µM"
>>> result("COc1ccc(-c2sc(NC3(C4CCOCC4)CC3)nc2C)cc1S(=O)(=O)Nc1ccc(Cl)cc1Cl")
"39 µM"
>>> result("COc1ccc(-c2sc(NC(C)(C)c3cccnc3)nc2C)cc1S(=O)(=O)Nc1c(C)cccc1F")
"19 µM"

Read the next record carefully.
Exercise: What does the data say about its CC50? Entry: "COc1ccc(-c2sc(NC(C)(C)C3CCOCC3)nc2C)cc1S(=O)(=O)Nc1cccnc1C"
Key: 47 µM

====

assay: Cell toxicity (CC50) in HRV assay; settings: human, HRV CC50
Measurement kind: CC50 (µM)
Just the number please, in µM, no unit attached.

>>> result_number("COc1ccc(-c2sc(NC(C)(C)C3CCOCC3)nc2C)cc1S(=O)(=O)Nc1ccc(NC(C)=O)cc1 [Compound S-40]")
40.8
>>> result_number("COc1ccc(-c2sc(NC(C)(C)c3cccnc3)nc2C)cc1S(=O)(=O)Nc1c(C)cccc1F [Compound S-39]")
47.7
>>> result_number("COc1ccc(-c2sc(NC(C)(C)C3CCOCC3)nc2C)cc1S(=O)(=O)Nc1cccnc1OC [Compound S-18]")
62.1
>>> result_number("COc1ccc(-c2sc(NC(C)(C)C3CCCCC3)nc2C)cc1S(=O)(=O)Nc1c(C)cccc1F [Compound S-58]")
100

Exercise: What value of CC50 has been reported for the following compound? COc1ccc(-c2sc(NC(C)(C)C3CCOCC3)nc2C)cc1S(=O)(=O)Nc1ccc(F)cc1C [Compound S-8]
Key: 8.47

Exercise: Entry COc1ccc(-c2sc(NC(C)(C)C3CCOCC3)nc2C)cc1S(=O)(=O)Nc1ccc(F)cc1Cl [Compound S-4] has what CC50?
Key: 17.3

Exercise: Param item = COc1ccc(-c2sc(NC(C)(C)C3CCOCC3)nc2C)cc1S(=O)(=O)Nc1cncnc1C [Compound S-23] ; retrieve measured CC50.
Key: 100

Exercise: Tell me the measured CC50 of COc1ccc(-c2sc(NC(C)(C)C3CCOCC3)nc2C)cc1S(=O)(=O)NC1CCN(C(C)=O)CC1 [Compound S-12] , please.
Key: 65.9

Exercise: # query: CC50 of entry COc1ccc(-c2oc(NC(C)(C)c3cccnc3)nc2C)cc1S(=O)(=O)Nc1ccncc1C [Compound S-48]
Key: 100

Exercise: Entry under review: COc1ccc(-c2sc(NC3(C4CCOCC4)CC3)nc2C)cc1S(=O)(=O)Nc1cccnc1C [Compound S-16] . Reported CC50?
Key: 38.3

Exercise: If you can, please state the reported CC50 value of COc1ccc(-c2sc(NC(C)(C)C3CCOCC3)nc2C)cc1S(=O)(=O)NC1CCN(C(=O)OC(F)(F)F)CC1 [Compound S-20] .
Key: 49.4

Exercise: What does the record list as CC50 for COc1ccc(-c2sc(NCC3CCOCC3)nc2C)cc1S(=O)(=O)Nc1ccc(F)cc1Cl [Compound S-77] ?
Key: 66

Exercise: Recorded CC50 for COCC(C)(C)Nc1nc(C)c(-c2ccc(OC)c(S(=O)(=O)Nc3c(C)cccc3F)c2)s1 [Compound S-63] , please?
Key: 27.7

Exercise: Query (compound): COc1ccc(-c2sc(N[C@@H](C)c3ccccc3)nc2C)cc1S(=O)(=O)Nc1c(C)cccc1F [Compound S-74] ; field requested: CC50
Key: 95

Exercise: Requested read-out: CC50. Entry: COc1ccc(-c2sc(NC(C)(C)C3CCOCC3)nc2C)cc1S(=O)(=O)Nc1c(C)ncnc1C [Compound S-17]
Key: 100

====

assay: Cell toxicity (CC50) in EV68 assay; conditions: EV68 CC50
Measurement kind: CC50 (µM)
Your answer is read as µM, so omit the unit and give the number.

>>> result_number("COc1ccc(-c2sc(NC(C)(C)C3CCN(C(C)=O)CC3)nc2C)cc1S(=O)(=O)Nc1ccc(F)cc1Cl")
37
>>> result_number("COc1ccc(-c2sc(NC3(C4CCOCC4)CC3)nc2C)cc1S(=O)(=O)Nc1ccc(Cl)cc1Cl")
39.4
>>> result_number("COc1ccc(-c2sc(NC(C)(C)C3CCOCC3)nc2C)cc1S(=O)(=O)Nc1cccc2[nH]cc(Br)c12")
1.76
>>> result_number("COc1ccc(-c2sc(NC(C)(C)C3CCOCC3)nc2C)cc1S(=O)(=O)NC1CCN(C(=O)OC(C)(C)C)CC1")
100
>>> result_number("COc1ccc(-c2sc(NC(C)C3CCOCC3)nc2C)cc1S(=O)(=O)Nc1c(C)cccc1F (centres unmarked)")
9.4
>>> result_number("COc1ccc(-c2sc(NC(C)(C)c3ccccc3)nc2C)cc1S(=O)(=O)NC1CCNCC1")
2.09
>>> result_number("COc1ccc(-c2sc(NC(C)(C)C3CCNCC3)nc2C)cc1S(=O)(=O)Nc1cccnc1C")
100
>>> result_number("COc1ccc(-c2sc(NC(C)(C)c3cccnc3)nc2C)cc1S(=O)(=O)Nc1c(C)cccc1F")
19.9
>>> result_number("COc1ccc(-c2sc(NC(C)(C)C3CCOCC3)nc2C)cc1S(=O)(=O)NC1CCN(C(=O)OC(F)(F)F)CC1")
51.6
>>> result_number("COc1ccc(-c2sc(NC(C)(C)C3CCOCC3)nc2C)cc1S(=O)(=O)Nc1c(F)cccc1CO")
19.3

// next entry
Exercise: What measured CC50 goes with "COc1ccc(-c2sc(NC(C)(C)c3ccncc3)nc2C)cc1S(=O)(=O)Nc1c(C)cccc1F" ?
Key: 3.88

====

Each record here notes measured CC50.
experiment: Cell toxicity (CC50) in HRV assay; conditions: human, HRV CC50

Some solved entries appear below for comparison.
>>> result("COc1ccc(-c2sc(NC(C)(C)C3CCOCC3)nc2C)cc1S(=O)(=O)NC1CCS(=O)(=O)CC1")
"40.7 µM"
>>> result("COc1ccc(-c2sc(NC(C)(C)C3CCOCC3)nc2C)cc1S(=O)(=O)Nc1ccncc1C(F)(F)F")
"38.7 µM"
>>> result("COc1ccc(-c2sc(NC(C)(C)c3ccccc3)nc2C)cc1S(=O)(=O)NC1CCN(S(C)(=O)=O)CC1")
"95.2 µM"

We next turn to a different compound, shown below.
Exercise: Suppose we examine the compound "COc1ccc(-c2sc(NC(C)(C)c3ccncc3)nc2C)cc1S(=O)(=O)Nc1ccncc1C" ; what CC50 value has been reported?
Key: 66.3 µM

====

# CC50 annotations
assay: Cell toxicity (CC50) in HRV assay; settings: human, HRV CC50
Please answer using the number first and the unit second.

Look over these answered cases.
>>> result("COc1ccc(-c2sc(NC(C)(C)C3CCOCC3)nc2C)cc1S(=O)(=O)Nc1ccncc1C")
"46.6 µM"
>>> result("COc1ccc(-c2sc(NC(C)(C)C3CCOCC3)nc2C)cc1S(=O)(=O)NC1CCC(O)CC1 (stereo not drawn)")
"57 µM"

We now examine a further molecule.
Exercise: What value of CC50 has been recorded for this entry: "COc1ccc(-c2oc(NC(C)(C)c3ccccn3)nc2C)cc1S(=O)(=O)Nc1ccncc1C"
Key: 49.5 µM
